- assayTarget: human TLR9 (Homo sapiens)
- Construct: endogenous in cells; host or cells: primary human B cells (CD19 microbeads) from buffy coats of healthy donors
- Sequence (Q9NR96 26-1032): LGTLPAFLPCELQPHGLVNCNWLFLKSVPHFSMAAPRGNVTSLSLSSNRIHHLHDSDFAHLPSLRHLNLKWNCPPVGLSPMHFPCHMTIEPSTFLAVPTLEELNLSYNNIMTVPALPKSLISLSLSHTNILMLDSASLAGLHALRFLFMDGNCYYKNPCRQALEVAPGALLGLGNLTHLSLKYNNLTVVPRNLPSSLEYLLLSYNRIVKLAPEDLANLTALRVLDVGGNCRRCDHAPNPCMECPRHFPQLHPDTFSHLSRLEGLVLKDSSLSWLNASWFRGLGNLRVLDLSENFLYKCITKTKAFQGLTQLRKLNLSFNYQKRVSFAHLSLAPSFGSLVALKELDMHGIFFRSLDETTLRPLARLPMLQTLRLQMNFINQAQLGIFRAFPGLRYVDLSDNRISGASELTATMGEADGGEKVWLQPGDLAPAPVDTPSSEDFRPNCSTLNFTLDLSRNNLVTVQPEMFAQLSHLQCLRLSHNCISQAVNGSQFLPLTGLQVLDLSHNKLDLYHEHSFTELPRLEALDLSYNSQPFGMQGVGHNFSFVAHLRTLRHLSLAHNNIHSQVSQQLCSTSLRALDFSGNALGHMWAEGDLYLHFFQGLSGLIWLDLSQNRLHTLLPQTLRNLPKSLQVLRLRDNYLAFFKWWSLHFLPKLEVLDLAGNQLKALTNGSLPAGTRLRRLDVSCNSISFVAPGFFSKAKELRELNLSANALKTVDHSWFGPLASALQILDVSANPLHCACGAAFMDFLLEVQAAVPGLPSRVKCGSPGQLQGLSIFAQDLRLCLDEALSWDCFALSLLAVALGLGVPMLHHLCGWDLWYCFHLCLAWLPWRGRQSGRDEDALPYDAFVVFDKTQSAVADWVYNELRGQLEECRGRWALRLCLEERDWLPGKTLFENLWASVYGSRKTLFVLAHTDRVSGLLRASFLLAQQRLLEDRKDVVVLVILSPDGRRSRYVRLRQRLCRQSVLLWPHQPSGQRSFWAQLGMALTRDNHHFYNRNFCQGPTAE
- protocolText: Inhibition of human TLR9 in human B cells (IL-6 ELISA)
- Type: cell-based
- experimentalContext: human B cells, agonist 1018 ISS 1 μM, IL-6 readout, 48 hours; range about 0.01 to 10 μM; read-out: Human TLR9 IC50
Could you please report measured pIC50 for the items listed next?
Keep in mind that pIC50 stands for -log10 of concentration in molar terms.

Give recorded pIC50 with human TLR9 (Homo sapiens) for the following compound: Cc1ccc(-n2nc3c(N4CCC(C(=O)N5CCC(N6CCC6)CC5)CC4)nnc(C)c3c2C)cc1
8.00

Item Cc1ccc(-n2nc3c(N4CCC(C(=O)NCCCN5CCOCC5)CC4)nnc(C)c3c2C)cc1 [Compound No. 19x] with human TLR9 (Homo sapiens) - pIC50?
7.74

Can you look up pIC50 on human TLR9 (Homo sapiens) for CCN1CCN(C(=O)C2CCN(c3nnc(C)c4c(C)n(-c5ccc(C)cc5)nc34)CC2)CC1 [51x] ?
8.22

Request body: readout pIC50, system human TLR9 (Homo sapiens), query CCN(CC)CCNC(=O)C1CCN(c2nnc(C)c3c(C)n(-c4ccc(C)cc4)nc23)CC1 [20x] . Return the value.
8.52

Enter reported pIC50 observed with human TLR9 (Homo sapiens) for Cc1ccc(-n2nc3c(N4CC(C(=O)NCCCN(C)C)C4)nnc(C)c3c2C)cc1
6.60

Look up pIC50 with human TLR9 (Homo sapiens) for this compound: Cc1ccc(-n2nc3c(N4CCC(C(=O)NCCCN(C)C)CC4)nnc(C)c3c2C)cc1
7.40

State its pIC50 on human TLR9 (Homo sapiens): Cc1nnc(N2CCC(C(=O)NCCN3CCCCC3C)CC2)c2nn(-c3ccccc3)c(C)c12 (centres unmarked) [24x]
7.49

I'm curious: which pIC50 was measured for Cc1nnc(N2CCC(C(=O)NCCCN3CCN(C)CC3)CC2)c2nn(-c3ccccc3)c(C)c12 [31x] tested on human TLR9 (Homo sapiens)?
6.68

Hello, I am looking for reported pIC50 with human TLR9 (Homo sapiens) for Cc1ccc(-n2nc3c(N4CCCC(C(=O)NCCN(C)C)C4)nnc(C)c3c2C)cc1 (centres unmarked) [45x] . Could you help?
8.05

Observed pIC50 on human TLR9 (Homo sapiens) for CCN1CCCC1CNC(=O)C1CCN(c2nnc(C)c3c(C)n(-c4ccccc4)nc23)CC1 (centres unmarked) [33x] , please.
7.15

Missing value: pIC50, human TLR9 (Homo sapiens), entry Cc1ccc(-n2cc3cnnc(N4CCC(C(=O)NCCCN(C)C)CC4)c3n2)cc1 . Fill in?
8.15

What measured pIC50 is associated with CCN(CC)CCCNC(=O)C1CCN(c2nnc(C)c3c(C)n(-c4ccccc4)nc23)CC1 on human TLR9 (Homo sapiens)?
6.43

Query for human TLR9 (Homo sapiens): what pIC50 does the record show for CCN1CCN(C(=O)C2CCN(c3nncc4cn(-c5ccc(C)cc5)nc34)CC2)CC1 ?
7.59

Give pIC50 (human TLR9 (Homo sapiens)) of the following compound: Cc1ccc(-n2nc3c(N4CCC(C(=O)N5CCC(CN(C)C)C5)CC4)nnc(C)c3c2C)cc1 (centres unmarked)
9.00
